// provenance: patent US20210309732A1

- target: T1, recombinant human GM-CSF (human, UniProt P04141 18-144)
- T1 construct: also called rhGM-CSF; CSF2
- T1 sequence (P04141 18-144 limits assumed): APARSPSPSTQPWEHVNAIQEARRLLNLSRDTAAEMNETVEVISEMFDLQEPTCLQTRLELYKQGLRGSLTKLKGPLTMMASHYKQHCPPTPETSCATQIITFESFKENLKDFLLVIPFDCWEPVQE
- experiment_description: Biacore
parameter: Kd (nM)
Could you give me the number in nM? Just the number is fine.

1D2 SDR mutant K54G/V32R (antibody, IgG1, V domains shown, also called 54G/32R) VH: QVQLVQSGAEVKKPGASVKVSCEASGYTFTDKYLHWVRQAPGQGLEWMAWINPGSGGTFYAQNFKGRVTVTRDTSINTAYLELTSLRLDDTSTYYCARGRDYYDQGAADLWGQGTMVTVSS VL: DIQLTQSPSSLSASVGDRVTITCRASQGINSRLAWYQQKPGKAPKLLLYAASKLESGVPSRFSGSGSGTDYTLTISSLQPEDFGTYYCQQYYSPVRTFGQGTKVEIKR
1.91

# evaluate next
Lookup: Need Kd of 1D2 SDR mutant Y103N/V32R (antibody, IgG1, V domains shown) VH: QVQLVQSGAEVKKPGASVKVSCEASGYTFTDKYLHWVRQAPGQGLEWMAWINPKSGGTFYAQNFKGRVTVTRDTSINTAYLELTSLRLDDTSTYYCARGRDYNDQGAADLWGQGTMVTVSS VL: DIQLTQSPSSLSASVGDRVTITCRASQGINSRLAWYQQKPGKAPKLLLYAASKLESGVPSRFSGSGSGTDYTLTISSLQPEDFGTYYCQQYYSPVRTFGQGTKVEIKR , thanks.
Found: 4.22
